Parameter IC50: see the listing below.
# System: DMS-114 (FGFR1 overexpression) cells
# Assay procedure: cell proliferation assay (CellTiterGlo), DMS-114 cells
# Assay type: cell-based
# Run conditions: Homo sapiens, DMS-114, 72 h

| Chemical smiles | IC50 |
| --- | --- |
| Cc1nc2ccc(Oc3ccc4ncc(-c5cnn(C6CCN(CC(F)(F)F)CC6)c5)nc4c3Cl)cc2[nH]1 | ≥ 400 nM |
| FC1(F)CC(Cn2cc(-c3cnc4ccc(Oc5ccc6[nH]c(C(F)(F)F)nc6c5)c(Cl)c4n3)cn2)C1 | ≥ 400 nM |
| Cc1nc2c(F)c(Oc3ccc4ncc(-c5cnn(CC6CC(F)(F)C6)c5)nc4c3Cl)ccc2[nH]1 | ≥ 400 nM |
| Cc1nc2ccc(Oc3ccc4ncc(-c5cnn(CC6(O)CC6)c5)nc4c3C3=CC(C)(C)OC3)c(F)c2[nH]1 | 20 to 100 nM |
| Cc1nc2ccc(Oc3ccc4ncc(-c5cnn([C@H]6C[C@@H](N7CCOCC7)C6)c5)nc4c3Cl)cc2[nH]1 | ≥ 400 nM |
| Cc1nc2ccc(Oc3ccc4ncc(-c5cnn(CC6OCC7(COC7)CO6)c5)nc4c3Cl)cc2[nH]1 | ≥ 400 nM |
| Cc1nc2ccc(Oc3ccc4ncc(-c5cnn(C6CCNCC6)c5)nc4c3C3CC3)cc2[nH]1 | 100 to 400 nM |
